Test: Monomer content of pH adjusted aqueous solutions (LC-UV)
Type: physicochemical
Conditions: 10 mg/mL aqueous salt solution, pH adjusted to 7.6 to 8, LC-UV
The reader will find reported % Monomer in 10 mg/mL salt solution values listed item by item below.

IN: What % Monomer in 10 mg/mL salt solution value was documented for this compound, O=C(Cc1cccs1)N[C@H]1Cc2ccc(F)c(C(=O)O)c2OB1O [Compound 30] ?
OUT: 93.5%

IN: What % Monomer in 10 mg/mL salt solution value was documented for this compound, CSCC(=O)N[C@H]1Cc2ccc(F)c(C(=O)O)c2OB1O [Compound 1] ?
OUT: 97.5%

IN: What % Monomer in 10 mg/mL salt solution value was documented for this compound, COc1ccc2c(c1C(=O)O)OB(O)[C@@H](NC(=O)Cc1cccs1)C2 [Compound 29] ?
OUT: 98.6%

Now turn to the next compound.
IN: What % Monomer in 10 mg/mL salt solution value was documented for this compound, COc1ccc2c(c1C(=O)O)OB(O)[C@@H](NC(=O)CSC)C2 [Compound 12] ?
OUT: 95.5%
